Recorded measurements of IRF reporter, one per entry
- System: RAW-Dual (murine macrophage reporter line)
- assay comment: IRF reporter (Lucia luciferase) activity fold change vs agonist alone; higher = enhanced IRF activity
- condition set: modulator concentration 10 µM; agonist: 3'3'-cGAMP 10 ug/mL

compound	study system	IRF reporter
Br.CCCc1cc(-c2nc(-c3ccc(C)cc3)cs2)ccn1	RAW-Dual (murine macrophage reporter line)	1.04
CC(=O)O.CCN(CC)CC#CC1(O)CCCCC1	RAW-Dual (murine macrophage reporter line)	0.902
Cc1ccc(C)c(NC(=O)CCN2CCN(C=O)CC2)c1	RAW-Dual (murine macrophage reporter line)	0.962
CN(C(=O)COc1coc(CN2CCN(c3ccccc3)CC2)cc1=O)c1ccccc1	RAW-Dual (murine macrophage reporter line)	0.97
COc1ccc(C(=O)NCc2ccc(OCCN(C)C)cc2)cc1OC.Cl	RAW-Dual (murine macrophage reporter line)	0.88
COc1cccc2c1C(=O)c1c(O)c3c(c(O)c1C2=O)C[C@@](O)(C(C)=O)C[C@@H]3O[C@H]1C[C@H](N)[C@H](O)[C@H](C)O1 [Prestw-487]	RAW-Dual (murine macrophage reporter line)	0.0214
COc1cc(C2Oc3cc(C4Oc5cc(O)cc(O)c5C(=O)C4O)ccc3OC2CO)ccc1O (stereo not given)	RAW-Dual (murine macrophage reporter line)	0.988
COc1ccc(C=Nn2cc(-c3ccc(Cl)cc3)nc2N=Cc2cc(Br)cc(Br)c2O)cc1	RAW-Dual (murine macrophage reporter line)	0.883
NC(N)=NN=Cc1ccc(OS(=O)(=O)c2ccccc2)cc1	RAW-Dual (murine macrophage reporter line)	0.929
CCCCCCOc1ccc(N2C(=O)CC(N3CCN(Cc4ccc5c(c4)OCO5)CC3)C2=O)cc1 (stereo not given)	RAW-Dual (murine macrophage reporter line)	0.929

====

- Tested on: RAW-Dual (murine macrophage reporter line)
- assay comment: IRF reporter (Lucia luciferase) activity fold change vs agonist alone; higher = enhanced IRF activity
- condition set: modulator concentration 10 µM; agonist: LPS 0.1 ug/mL
readout kind: IRF reporter

compound	study system	result
c1ccc2[nH]c(-c3cscn3)nc2c1	RAW-Dual (murine macrophage reporter line)	1.17
Cc1ccc(O)c(C2=NOC(O)(C(F)(F)F)C2)c1 (stereo unspecified)	RAW-Dual (murine macrophage reporter line)	1.43
O=C(c1ccc(Cl)cc1)c1ccc(N2CCOCC2)c([N+](=O)[O-])c1	RAW-Dual (murine macrophage reporter line)	1.62
Cc1cc(C)n(N=Cc2c[nH]c3ccccc23)c(=O)c1C#N	RAW-Dual (murine macrophage reporter line)	1.4
COC(=O)C1=C(C)NC(C)=C(C(=O)OCCN(C)Cc2ccccc2)C1c1cccc([N+](=O)[O-])c1.Cl (stereo unspecified)	RAW-Dual (murine macrophage reporter line)	1.01
CCCCN(Cc1ccccc1)C(=O)C1CCN(Cc2c(F)cccc2Cl)CC1	RAW-Dual (murine macrophage reporter line)	1.69
Cc1ccc(Nc2nccc(N(C)c3ccc4c(C)n(C)nc4c3)n2)cc1S(N)(=O)=O	RAW-Dual (murine macrophage reporter line)	0.835
Nc1ncnc2c1ncn2[C@@H]1O[C@H](COP(=O)(O)O)[C@@H](O)[C@H]1O [Prestw-356]	RAW-Dual (murine macrophage reporter line)	1.21
Clc1ccc(-c2nc(N3CCCCC3)nc3ccccc23)cc1	RAW-Dual (murine macrophage reporter line)	0.953
Nc1ncn(C2OC(CO)C(O)C2O)c(=O)n1 (stereo unspecified)	RAW-Dual (murine macrophage reporter line)	0.728
O=C(O)c1cc2ccccc2[nH]1	RAW-Dual (murine macrophage reporter line)	0.975
